Could you please report measured inhibition at 100 µM for the items listed next?
# targetOfAssay: SARS-CoV-2 Mac1 (Severe acute respiratory syndrome coronavirus 2)
# testName: biochemical
# conditionContext: read-out: %inhibition
Structures can show the parent of a compound that is named as a salt.
Answers are plain numbers, in %.

Here's what some known entries look like.
# compound, inhibition at 100 µM, %
records = [
    ("Cc1[nH]c(=O)c(C#N)cc1-c1ccc2nccn2c1", 0),
    ("Cc1ccc(NC(=O)c2ccc(CN3CC[C@H](N(C)C)C3)c(C(F)(F)F)c2)cc1Nc1nccc(-c2cncnc2)n1", 0),
    ("CC(C)NCC(O)COc1ccc(CC(N)=O)cc1 (centres unmarked)", 0),
    ("CC(C)c1cccc(C(C)C)c1O", 19.3),
    ("CCOC(=O)O[C@]1(C(=O)OCCl)CC[C@H]2[C@@H]3CCC4=CC(=O)C=C[C@]4(C)[C@H]3[C@@H](O)C[C@@]21C [Loteprednol etabonate]", 0),
    ("C[C@H](Cc1cc2c(c(C(N)=O)c1)N(CCCO)CC2)NCCOc1ccccc1OCC(F)(F)F", 0),
]

Would you mind giving inhibition at 100 µM for every compound in the list below?
1. Cn1cc(C(=O)[C@@H]2CCc3[nH]cnc3C2)c2ccccc21 [Ramosetron Hydrochloride]
2. CCC/N=C1\S/C(=C\c2ccc(OC[C@H](O)CO)c(Cl)c2)C(=O)N1c1ccccc1C
3. O=c1oc2c(O)c(O)cc3c(=O)oc4c(O)c(O)cc1c4c23
4. CNNCc1ccc(C(=O)NC(C)C)cc1 [Procarbazine HCl]
5. CS(=O)(=O)Nc1cc2occ(NC=O)c(=O)c2cc1Oc1ccccc1
6. CO[C@H]1/C=C/O[C@@]2(C)Oc3c(C)c(O)c4c(O)c(cc(O)c4c3C2=O)NC(=O)/C(C)=C\C=C\[C@H](C)[C@H](O)[C@@H](C)[C@@H](O)[C@@H](C)[C@H](OC(C)=O)[C@@H]1C [Rifamycin sodium salt]
7. CC(C[N+](C)(C)C)OC(N)=O (centres unmarked) [Bethanechol chloride]

### Response
1. 0
2. 0
3. 33.1
4. 0
5. 4.14
6. 10.7
7. 0
